These data points were gathered from patent EP4631940A1.

Assay: PK study in ICR mice (plasma)
Format: in vivo
Conditions: mouse, Female ICR mice, IV 1 mg/kg
Readout Label: half-life (h)
Please respond with the number in h and leave the unit unwritten.

These solved cases illustrate the format of a correct answer.
CCc1c(F)ccc2cc(O)cc(-c3ncc4c(N5CCC[C@@](C)(O)C5)nc(OCC5(CN6CCN(c7ccc(-c8cn([C@H](C(=O)N9C[C@H](O)C[C@H]9C(=O)N[C@@H](C)c9ccc(-c%10scnc%10C)cc9)C(C)C)nn8)cn7)CC6)CC5)nc4c3F)c12 [Compound 142] :: 4.1
CCc1c(F)ccc2cc(O)cc(-c3ncc4c(N5CCC[C@@](C)(O)C5)nc(OCC5(CN6CCC(Oc7ccc(-c8cn([C@H](C(=O)N9C[C@H](O)C[C@H]9C(=O)N[C@@H](C)c9ccc(-c%10scnc%10C)cc9)C(C)C)nn8)cn7)CC6)CC5)nc4c3F)c12 [Compound 135] :: 6.92

In: Name the recorded half-life for CCc1c(F)ccc2cc(O)cc(-c3ncc4c(N5CCC[C@@](C)(O)C5)nc(OCC5(CN6CCC(Oc7cnc(-c8cn([C@H](C(=O)N9C[C@H](O)C[C@H]9C(=O)N[C@@H](C)c9ccc(-c%10scnc%10C)cc9)C(C)C)nn8)cn7)CC6)CC5)nc4c3F)c12 [Compound 144] .
Out: 9.34
